- method: Fluorescence assay protocol (absorption, excitation and emission scans in MeOH)
- Assay type: physicochemical
Provide the recorded Fluorescence Emission Peak for the entries that follow.
Only the number, expressed in nm, is required.

Recorded Fluorescence Emission Peak for CCCCCCCN(C)c1cc(O)c2c(c1)oc(=O)c1ccc(C)cc12 , please?
519

Recorded Fluorescence Emission Peak for CCCCCCCN(C)c1cc(O)c2c(c1)oc(=O)c1ccc(O)cc12 , please?
502

Recorded Fluorescence Emission Peak for CCCCCCCC(C)(C)c1cc(OC)c2c3c(c(=O)oc2c1)CCC(C)C3 (centres unmarked) , please?
390

Recorded Fluorescence Emission Peak for CCCCCCCN(C)c1cc(OC)c2c(c1)oc(=O)c1ccc(C)cc12 , please?
465

Recorded Fluorescence Emission Peak for CCCCCC(C)Oc1cc(O)c2c3c(c(=O)oc2c1)CCC(C)C3 (centres unmarked) , please?
423

* * *

Provide the recorded Ki for the entries that follow.
- experimental_system: CB2 receptor (Mus musculus, UniProt P47936)
- Construct: membranes were prepared from frozen mouse spleen; from tissue; host or cells: mouse spleen
- Sequence (P47936 whole entry): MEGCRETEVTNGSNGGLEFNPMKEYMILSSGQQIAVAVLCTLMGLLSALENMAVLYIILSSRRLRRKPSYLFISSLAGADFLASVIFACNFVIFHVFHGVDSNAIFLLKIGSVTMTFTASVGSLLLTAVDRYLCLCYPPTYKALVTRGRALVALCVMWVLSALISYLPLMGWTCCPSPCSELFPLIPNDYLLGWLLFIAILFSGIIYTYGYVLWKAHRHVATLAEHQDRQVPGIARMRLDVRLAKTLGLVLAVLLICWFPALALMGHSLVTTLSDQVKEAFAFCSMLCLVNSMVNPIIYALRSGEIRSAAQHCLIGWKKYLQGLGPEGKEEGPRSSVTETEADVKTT
- method: CB2 receptor binding assay ([3H] CP-55,940 displacement, mouse spleen membranes)
Only the number, expressed in nM, is required.

Recorded Ki for CCCCCCC(C)Oc1cc(O)c2c3c(c(=O)oc2c1)CCC(=O)C3 (stereo not drawn) , please?
0.4

Recorded Ki for CCCCCCCN(C)c1cc(O)c2c(c1)oc(=O)c1ccc(OC)cc12 , please?
148

Recorded Ki for CCCCCCCN(C)c1cc(O)cc2oc(=O)c3c(c12)CC(C)CC3 (stereo not drawn) , please?
824

* * *

- experimental_system: CB1 cannabinoid receptor (Rattus norvegicus)
- Sequence (P20272 whole entry): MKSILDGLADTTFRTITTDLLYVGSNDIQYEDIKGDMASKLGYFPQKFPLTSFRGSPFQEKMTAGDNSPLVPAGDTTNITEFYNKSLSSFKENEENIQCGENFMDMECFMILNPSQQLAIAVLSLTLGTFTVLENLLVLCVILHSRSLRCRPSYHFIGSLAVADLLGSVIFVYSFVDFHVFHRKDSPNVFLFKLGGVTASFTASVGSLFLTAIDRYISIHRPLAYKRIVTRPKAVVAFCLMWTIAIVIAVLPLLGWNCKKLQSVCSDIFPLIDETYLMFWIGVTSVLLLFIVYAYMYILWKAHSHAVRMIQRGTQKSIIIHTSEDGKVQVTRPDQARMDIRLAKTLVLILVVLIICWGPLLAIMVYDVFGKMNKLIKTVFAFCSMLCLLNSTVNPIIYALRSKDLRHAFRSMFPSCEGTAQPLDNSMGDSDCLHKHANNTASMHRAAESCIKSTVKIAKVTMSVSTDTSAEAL
# TRUE = Ki below 2000 nM (exclusive); FALSE = Ki at/above 2000 nM

Input CCCCCCCC(C)(C)c1cc(OC)c2c3c(c(=O)oc2c1)CCC(=O)C3 ; condition: Ki strictly below 2000 nM. Does it hold?
TRUE

Input CCCCCCC(C)(C)c1cc(OC)c2c(c1)oc(=O)c1ccncc12 ; condition: Ki strictly below 2000 nM. Does it hold?
FALSE

Input CCCCCCC(C)Oc1cc(O)c2c3c(c(=O)oc2c1)CCC(C)C3 (stereo not shown) ; condition: Ki strictly below 2000 nM. Does it hold?
TRUE

Input CCCCCCCN(C)c1cc(O)c2c(c1)oc(=O)c1ccc(C(F)(F)F)cc12 ; condition: Ki strictly below 2000 nM. Does it hold?
FALSE

Input CCCCCCC(C)(C)c1cc(O)c2c(c1)oc(=O)c1ccccc12 ; condition: Ki strictly below 2000 nM. Does it hold?
FALSE

Input CCCCCCCN(C)c1cc(O)c2c(c1)oc(=O)c1ccc(C)cc12 ; condition: Ki strictly below 2000 nM. Does it hold?
TRUE

Input CCCCCCCN(C)c1cc2oc(=O)c3ccc(C)cc3c2c(O)c1Br ; condition: Ki strictly below 2000 nM. Does it hold?
TRUE

Input CCCCCCCN(C)c1cc(O)c2c(c1)oc(=O)c1ccc(O)cc12 ; condition: Ki strictly below 2000 nM. Does it hold?
TRUE

Input CCCCCCc1cc2c3c(c(=O)oc2cc1O)CCC(C)C3 (stereo not shown) ; condition: Ki strictly below 2000 nM. Does it hold?
FALSE

Input CCCCCCCN(C)c1cc(O)c2c(c1)oc(=O)c1ccc(OC)cc12 ; condition: Ki strictly below 2000 nM. Does it hold?
TRUE

Input CCCCCCN(C)c1cc(O)cc2oc(=O)c3c(c12)CC(C)CC3 (stereo not shown) ; condition: Ki strictly below 2000 nM. Does it hold?
TRUE

Input CCCCCCCN(C)c1cc(OC)c2c(c1)oc(=O)c1ccc(C)cc12 ; condition: Ki strictly below 2000 nM. Does it hold?
TRUE

Input CCCCCC(C)Oc1cc(O)c2c3c(c(=O)oc2c1)CCC(C)C3 (stereo not shown) ; condition: Ki strictly below 2000 nM. Does it hold?
TRUE

Input CCCCCCC(C)Oc1cc(OC)c2c3c(c(=O)oc2c1)CCC(=O)C3 (stereo not shown) ; condition: Ki strictly below 2000 nM. Does it hold?
FALSE

Input CCCCCCCN(C)c1cc(O)cc2oc(=O)c3c(c12)CC(C)CC3 (stereo not shown) ; condition: Ki strictly below 2000 nM. Does it hold?
FALSE

Input CCCCCCCN(C)c1cc(O)c2c(oc(=O)c3ccc(C)cc32)c1Br ; condition: Ki strictly below 2000 nM. Does it hold?
TRUE

Input CCCCCCCN(C)c1cc(O)c2c3c(c(=O)oc2c1)CCC(C)C3 (stereo not shown) ; condition: Ki strictly below 2000 nM. Does it hold?
TRUE

Input CCCCCCC(C)Oc1cc(OC(=O)CCCCN2CCOCC2)c2c3c(c(=O)oc2c1)CCC(=O)C3 (stereo not shown) ; condition: Ki strictly below 2000 nM. Does it hold?
TRUE

Input CCCCCCC(C)Oc1cc(O)c2c3c(c(=O)oc2c1)CCC(=O)C3 (stereo not shown) ; condition: Ki strictly below 2000 nM. Does it hold?
TRUE

Input CCCCCCCN(C)c1cc(OC)c2c(c1)oc(=O)c1ccc(C(F)(F)F)cc12 ; condition: Ki strictly below 2000 nM. Does it hold?
FALSE

* * *

- method: Fluorescence assay protocol (absorption, excitation and emission scans in MeOH)
- Assay type: physicochemical
Provide the recorded Absorbance Peak for the entries that follow.
Only the number, expressed in nm, is required.

Recorded Absorbance Peak for CCCCCCCN(C)c1cc(O)c2c3c(c(=O)oc2c1)CCC(C)C3 (centres unmarked) , please?
364

Recorded Absorbance Peak for CCCCCCCN(C)c1cc(O)c2c(c1)oc(=O)c1ccc(C)cc12 , please?
316

Recorded Absorbance Peak for CCCCCCN(C)c1cc(O)c2c3c(c(=O)oc2c1)CCC(C)C3 (centres unmarked) , please?
364

Recorded Absorbance Peak for CCCCCC(C)Oc1cc(O)c2c3c(c(=O)oc2c1)CCC(C)C3 (centres unmarked) , please?
320

Recorded Absorbance Peak for CCCCCCCN(C)c1cc(O)c2c(c1)oc(=O)c1ccc(OC)cc12 , please?
317

Recorded Absorbance Peak for CCCCCCCN(C)c1cc(O)c2c(c1)oc(=O)c1ccc(O)cc12 , please?
318

Recorded Absorbance Peak for CCCCCCCN(C)c1cc(OC)c2c(c1)oc(=O)c1ccc(C)cc12 , please?
405

Recorded Absorbance Peak for CCCCCCCC(C)(C)c1cc(OC)c2c3c(c(=O)oc2c1)CCC(C)C3 (centres unmarked) , please?
327

* * *

- experimental_system: CB2 receptor (Mus musculus, UniProt P47936)
- Construct: membranes were prepared from frozen mouse spleen; from tissue; host or cells: mouse spleen
- method: CB2 receptor binding assay ([3H] CP-55,940 displacement, mouse spleen membranes)
- condition_details: mouse spleen membranes, [3H] CP-55,940; read-out: CB2 Ki
measured_attribute: pKi
The quantity pKi is defined as the negative base-10 logarithm of the molar concentration.

Recorded pKi for CCCCCCC(C)(C)c1cc(O)c2c(c1)oc(=O)c1ccccc12 [Compound 47] , please?
8.18

Recorded pKi for CCCCCCC(C)Oc1cc(O)c2c3c(c(=O)oc2c1)CCC(C)C3 (stereo not drawn) [Compound 3] , please?
8.22

Recorded pKi for CCCCCCCN(C)c1cc(O)c2c(c1)oc(=O)c1ccc(C)cc12 [Compound 13] , please?
7.80

Data origin: patent US20050074408A1
